Entries and their melting point values follow.
Where a name gives a salt, the structure may show the parent alone.
quantityKind: melting point

{"compound": "CC1(CN)CCN(c2c(Cl)cc3c4c(cccc24)C(=O)N(O)C3=O)C1 (stereo not drawn) (as salt: TFA) [Example 89]", "value": "160 to 166 °C"}
{"compound": "NCC1CCN(c2c(Cl)cc3c4c(cccc24)C(=O)N(O)C3=O)C1 (stereo not drawn) (as salt: HCl) [Example 85]", "value": "229 to 232 °C"}
{"compound": "NC1CCN(c2c([N+](=O)[O-])cc3c4c(cccc24)C(=O)N(O)C3=O)C1 (stereo not drawn) [Example 82]", "value": "259 to 263 °C"}
{"compound": "O=C1c2cccc3c(N4CCNCC4)c([N+](=O)[O-])cc(c23)C(=O)N1O", "value": "300 to 302 °C"}
{"compound": "CCCCNC(=O)Nc1cc2c3c(cccc3c1)C(=O)N(O)C2=O [Example 100]", "value": "> 250 °C"}
{"compound": "CC(=O)Nc1cc2c3c(cccc3c1[SH]1CCNCC1)C(=O)C(O)C2=O (stereo not drawn) [Example 67]", "value": "292 to 295 °C"}
{"compound": "O=C1c2cccc3c([SH]4CCNCC4)c([N+](=O)[O-])cc(c23)C(=O)N1O [Example 78]", "value": "280 to 283 °C"}
{"compound": "CN1CCN(c2c(Cl)cc3c4c(cccc24)C(=O)N(O)C3=O)CC1 (as salt: TFA) [Example 98]", "value": "> 250 °C"}
{"compound": "CCCCCN1COc2cc3c4c(cccc4c2C1)C(=O)N(O)C3=O [Example 129]", "value": "194 to 196 °C"}
{"compound": "CCCNC(=O)Nc1cc2c3c(cccc3c1)C(=O)N(O)C2=O [Example 102]", "value": "> 250 °C"}
{"compound": "O=C1c2cccc3c(N4CCOCC4)c([N+](=O)[O-])cc(c23)C(=O)N1O [Example 81]", "value": "272 to 274 °C"}
{"compound": "CN1COc2cc3c4c(cccc4c2C1)C(=O)N(O)C3=O [Example 127]", "value": "247 to 249 °C"}
